Values from patent US4369188A

Molecular target: lens aldose reductase (Bos taurus)
Construct: the preparation of the enzyme from bovine lens; from tissue; host or cells: bovine lens
Experiment: in vitro aldose reductase inhibition (modified Hayman and Kinoshita procedure)
Type: biochemical
Conditions: 10^-5 molar; enzyme from bovine lens; read-out: % Inhibition at Different Molar Concentrations (in vitro)
Outcome: yes for inhibition at 10 µM of at least 90%; no for anything lower.

// below: answered compounds
O=C(O)CN1C(=S)c2cccc3c(Cl)ccc1c23 yes
O=C(O)CN1C(=S)c2cccc3c(I)ccc1c23 yes
O=C(O)CN1C(=S)c2cccc3cccc1c23 yes

Now let's try a different one.
**Query** inhibition at 10 µM >= 90% for "O=C(O)CN1C(=S)c2cccc3c(F)ccc1c23" ?
**Result** yes
